# Test system: OVCAR-8 ovarian
# Experiment summary: NCI-60 one-dose screen, 48 h
# Protocol conditions: 10 µM unless noted
About 83,000 compounds went through this panel and 20% of them were active in at least one assay; those are over-represented in the sample as a whole. Activity calls are given as the source filed them. The calls were made as follows: active = growth percent below 10; inactive = the rest.
Hi there, use one of these labels in your reply, thanks! TRUE = active, FALSE = inactive

INSERT INTO results (compound, class) VALUES
  ('Cc1nc2ccc(Nc3nc(NCCN4CCOCC4)nc(Nc4ccc(F)cc4)n3)cc2n1Cc1ccccc1', 'FALSE'),
  ('Cc1cc(C)c([O-])c(CN(C)CCN(C)Cc2cc(C)cc(C)c2[O-])c1.O=C([O-])c1cccc(C(=O)[O-])n1.[Ti+4]', 'FALSE'),
  ('Cc1cc(C)c2c(n1)sc1c(Nc3ccc(OCc4ccccc4)cc3)ncnc12', 'FALSE'),
  ('COc1cc(OC)cc(-c2n/c(=C\c3c(O)[nH]c4ccc(Cl)cc34)cc3c2=Nc2ccccc2-3)c1', 'FALSE'),
  ('CCCCCCCCNC(C)C(O)c1ccc(SC(C)C)cc1 (stereo unspecified)', 'TRUE');

Now take the following compound into account.
Request: Kindly provide the recorded test outcome for the following compound: `CSC(=S)N/N=C(\C)c1ccccn1`
Response: FALSE

----------
# Tested on: NCI/ADR-RES ovarian
# Experiment summary: NCI-60 one-dose screen, 48 h
# Protocol conditions: 10 µM unless noted
# Protocol: Growth inhibition of the NCI/ADR-RES human […] tumor cell line is measured as a screen for anti-cancer activity. Cells are grown in 96 well plates and exposed to the test compound for 48 hours. Compounds are tested at a single concentration, which is 10^-5 M for most compounds. The reported endpoint is percent growth (GI% or GIPRCNT), where numbers from 0 - 100% represent growth inhibition, and numbers from -100% - 0 represent cell death. For example, a value of 40 represents 60% growth inhibition. […]
Compounds without any hit were thinned out: in the full panel of roughly 83,000, 20% have a hit. The source made the active and inactive calls. The calls were made as follows: active = growth percent below 10; inactive = the rest.
Hi there, use one of these labels in your reply, thanks! YES (active), NO (inactive)

INSERT INTO assay_data (smiles_notation, class) VALUES
  ('CC(C)OC(=O)c1ccc([N+](=O)[O-])cc1', 'NO'),
  ('CNC(=O)c1ccccc1Sc1ccc2c(/C=C/c3ccccn3)n[nH]c2c1', 'NO'),
  ('Brc1cccc(-n2ncc3c(Nc4ccc(-c5nnc(-c6ccccc6)o5)cc4)ncnc32)c1', 'NO');

Request: Kindly provide the recorded test outcome for the following compound: `O=C(Nc1cccc(Cl)c1)Nc1cc(C(F)(F)F)ccc1Cl`
Response: YES

Request: Kindly provide the recorded test outcome for the following compound: `Clc1ccc2c(c1)-c1ccccc1C1=NCCN12`
Response: NO

----------
Here, each record is paired with measured growth data.
# Test system: SNB-75 CNS
# Experiment summary: NCI-60 one-dose screen, 48 h (100 = growth as untreated, 0 = no growth, -100 = all killed)
# Protocol conditions: 10 µM unless noted
About 83,000 compounds went through this panel and 20% of them were active in at least one assay; those are over-represented in the sample as a whole. The source made the active and inactive calls. How the source made its calls: active means growth percent below 10; inactive means the rest.

These solved cases illustrate the format of a correct answer.
INSERT INTO results (compound, experimental_system, test_readout, result) VALUES
  ('O=C(Nc1ccc(Oc2ccc(NC(=O)Nc3ccccc3Cl)cc2)cc1)Nc1ccccc1Cl', 'SNB-75 CNS', 'growth', '58.2% (inactive)'),
  ('O=C(Nc1ccc2[nH]c3ccccc3c2c1)c1ccccc1Cl', 'SNB-75 CNS', 'growth', '59.1% (inactive)');

Request: For the record `CC1=C(O)C(=O)C(c2c(C)cc(C)c(Br)c2C)=C(O)C1=O` , what value of growth is listed for SNB-75 CNS?
Response: 59.6% (inactive)

Request: For the record CCCCN(CCCC)CCC(O)c1cc2ccc(C(F)(F)F)cc2c2cc(C(F)(F)F)ccc12 (centres undefined) , what value of growth is listed for SNB-75 CNS?
Response: 60.9% (inactive)

----------
# Tested on: SW-620 colon
# Experiment summary: NCI-60 one-dose screen, 48 h
# Protocol conditions: 10 µM unless noted
The panel holds about 83,000 compounds, 20% with a hit somewhere; the sample as a whole holds those more often. Active and inactive are the calls of the source. The calls were made as follows: active = growth percent below 10; inactive = the rest.
Hi there, use one of these labels in your reply, thanks! 1.0 (active), 0.0 (inactive)

INSERT INTO measurements (compound, class) VALUES
  ('Clc1ccc(-c2nc(Br)cn3ccnc23)cc1', 0.0),
  ('N#CC1=C(N)Oc2nc[nH]c(=O)c2C1c1cccs1 (stereo not given)', 0.0),
  ('COc1cc(CN2CCO[C@H](COc3cccc(F)c3)C2)ccc1Cl', 0.0),
  ('CN1CCN(c2ccc(N3Cc4ccccc4OC4=C3C(=O)c3c(O)ccc(O)c3C4=O)cn2)CC1', 1.0);

Request: Kindly provide the recorded test outcome for the following compound: COc1ccc2[nH]cc(C(c3ccc(Cl)cc3)N3CCCC3)c2c1 (stereo not given)
Response: 0.0

Request: Kindly provide the recorded test outcome for the following compound: OC(c1cc2c(Cl)cc(Cl)cc2c2cc(C(F)(F)F)ccc12)C1CCCCN1 (stereo not given)
Response: 1.0

Request: Kindly provide the recorded test outcome for the following compound: COc1ccc(-c2nsc3c2NC(=O)CC3c2ccc3c(c2)OCO3)cc1 (stereo not given)
Response: 0.0

Request: Kindly provide the recorded test outcome for the following compound: `COc1cc2c(cc1I)-c1c(cc(OC)c(OC)c1OC)CC[C@@H]2NC(C)=O`
Response: 0.0

Request: Kindly provide the recorded test outcome for the following compound: `C/C(=C\C(=N\N=C(N)N)c1ccc(Cl)cc1)c1ccc(Cl)cc1`
Response: 1.0

Request: Kindly provide the recorded test outcome for the following compound: `Cn1nc(C(F)(F)F)cc1-c1c[nH]c(OCc2ccc(Cl)cc2)c(-c2ccc(Cl)c(C(F)(F)F)c2)c1=O`
Response: 0.0

Request: Kindly provide the recorded test outcome for the following compound: C#CC[C@@H]1C[C@]2(C)[C@H]3CC[C@@H]4[C@H]5C(C(=C)C)CC[C@]5(C(=O)NCCCN5CCN(CCCN)CC5)CC[C@@]4(C)[C@]3(C)CC[C@H]2C(C)(C)[C@H]1OC(C)=O (stereo not given in full)
Response: 1.0

Request: Kindly provide the recorded test outcome for the following compound: NS(=O)(=O)c1ccc(N2N=C(c3cccs3)CC2c2ccccc2O)cc1 (stereo not given)
Response: 0.0

----------
# System: MOLT-4 leukemia
# Experiment summary: NCI-60 one-dose screen, 48 h (100 = growth as untreated, 0 = no growth, -100 = all killed)
# Protocol conditions: 10 µM unless noted
This is part of a sample that, as a whole, favours compounds with a hit. Of some 83,000 tested, about 20% had one in any assay.
Threshold check on growth: strictly below 40% is T; on or above 40% is F.

INSERT INTO results (compound, class) VALUES
  ('COc1ccc(-c2nc(-c3ccccc3OCc3ccccc3OC)nc(C)c2C(C)=O)cc1', 'F');

Now take the following compound into account.
Request: In the record for `CNC(=O)c1ccccc1Sc1ccc2c(/C=C/c3ccccn3)n[nH]c2c1` , is growth less than 40%?
Response: T

----------
# Tested on: MALME-3M melanoma
# Experiment summary: NCI-60 one-dose screen, 48 h
# Protocol conditions: 10 µM unless noted
About 83,000 compounds went through this panel and 20% of them were active in at least one assay; those are over-represented in the sample as a whole. Activity calls are given as the source filed them. How the source made its calls: active means growth percent below 10; inactive means the rest.
Hi there, use one of these labels in your reply, thanks! active, inactive

INSERT INTO measurements (compound, class) VALUES
  ('CN1CCN(c2ccc(N3Cc4ccccc4OC4=C3C(=O)c3c(O)ccc(O)c3C4=O)cn2)CC1', 'active'),
  ('O=C(O)C1[S][Sb]([CH](C(=O)O)[CH](C(=O)O)[Sb]2[S]C(C(=O)O)C(C(=O)O)[S]2)[S]C1C(=O)O (centres undefined)', 'inactive'),
  ('CC(C)(C)CC(C)(C)NCc1cc(C(C)(C)C)cc(CNC(C)(C)CC(C)(C)C)c1O', 'inactive'),
  ('Cc1n(Cc2ccc3ccccc3n2)cc[n+]1Cc1ccc2ccccc2c1', 'active');

Request: Kindly provide the recorded test outcome for the following compound: `O=C(NC1CC1)c1ccc(-c2nc3ccc4[nH]ncc4c3c3c2CCCC3)cc1`
Response: inactive

Request: Kindly provide the recorded test outcome for the following compound: `CCN(CC)C(Cl)=Nc1ccc(Cl)cc1`
Response: inactive

Request: Kindly provide the recorded test outcome for the following compound: CSC1=NC(=Nc2c(C)cccc2C)C2(CCC(C(C)(C)C)CC2)N1c1ccc(Cl)cc1 (centres undefined)
Response: inactive

Request: Kindly provide the recorded test outcome for the following compound: `CC(C)c1ccc(Cn2ccc3c4c(N)nc(NC5CC5)nc4ccc32)cc1`
Response: active

Request: Kindly provide the recorded test outcome for the following compound: COc1ccc(NC(=O)C2c3ccccc3C(=O)N(CC(C)C)C2c2cccs2)cc1 (centres undefined)
Response: inactive
